Tested on: HL-60
Experiment summary: Compound was evaluated for its antiproliferative activity after UVA irradiation on human tumor HL-60 cell line
Format: functional, cell-based
Particulars: HL-60, light or radiation study
pIC50: −log10 of the molar value.
Property: pIC50

• Cc1cc(=O)oc2nc3scc(C)c3cc12 = 5.66
• Cc1sc2nc3oc(=O)cc(C)c3cc2c1C = 5.14

All values here come from ChEMBL document CHEMBL1135867.
